Test system: Mycobacterium tuberculosis
protocol_details: Anti-tubercular activity against rifampicin, isoniazid, ethambutol and pyrazinamide-sensitive Mycobacterium tuberculosis H37Ra ATCC 25177 assessed as growth inhibition at 30 ug/ml by XRMA method relative to control
Type: functional
condition_notes: read-out: GI
Decide using inhibition of growth at 30 µg/mL: a value greater than or equal to 90% is 1.0, a smaller one is 0.0.

Determine whether this compound has inhibition of growth at 30 µg/mL no lower than 90%: `COC(=O)CC[C@@H](C)[C@H]1CC[C@H]2[C@H]3[C@H]([C@H](N=[N+]=[N-])C(=O)[C@]12C)[C@@]1(C)CC[C@@H](OC(C)=O)C[C@H]1C[C@H]3OC(C)=O`
0.0

And `COC(=O)CC[C@@H](C)[C@H]1CC[C@H]2[C@H]3[C@H]([C@H](NC(=O)[C@H]4CCCN4C(=O)OC(C)(C)C)C(=O)[C@]12C)[C@@]1(C)CC[C@@H](OC(C)=O)C[C@H]1C[C@H]3OC(C)=O` ?
1.0

Entry to check: `COC(=O)CC[C@@H](C)[C@H]1CC[C@H]2[C@H]3[C@H]([C@H](NC(C)C)C(=O)[C@]12C)[C@@]1(C)CC[C@@H](OC(C)=O)C[C@H]1C[C@H]3OC(C)=O`
0.0

Please answer likewise for `COC(=O)CC[C@@H](C)[C@H]1CC[C@H]2[C@@H]3[C@H](OC(C)=O)C[C@@H]4C[C@H](OC(C)=O)CC[C@]4(C)[C@H]3CC(=O)[C@]12C`
0.0

What do you get for `COC(=O)CC[C@@H](C)[C@H]1CC[C@H]2[C@H]3[C@H]([C@H](n4nnc5ccccc54)C(=O)[C@]12C)[C@@]1(C)CC[C@@H](OC(C)=O)C[C@H]1C[C@H]3OC(C)=O` ?
1.0

Same for `COC(=O)CC[C@@H](C)[C@H]1CC[C@H]2[C@H]3[C@H]([C@H](n4cc(-c5ccccn5)nn4)C(=O)[C@]12C)[C@@]1(C)CC[C@@H](OC(C)=O)C[C@H]1C[C@H]3OC(C)=O`
0.0

Now the same for `CCOC(=O)N[C@@H]1C(=O)[C@]2(C)[C@@H]([C@H](C)CCC(=O)OC)CC[C@H]2[C@H]2[C@H]1[C@@]1(C)CC[C@@H](OC(C)=O)C[C@H]1C[C@H]2OC(C)=O`
0.0

For `CCCCCCc1cn([C@@H]2C(=O)[C@]3(C)[C@@H]([C@H](C)CCC(=O)OC)CC[C@H]3[C@H]3[C@H]2[C@@]2(C)CC[C@@H](OC(C)=O)C[C@H]2C[C@H]3OC(C)=O)nn1` then?
1.0

Input `COC(=O)CC[C@@H](C)[C@H]1CC[C@H]2[C@H]3[C@H]([C@H](N)C(=O)[C@]12C)[C@@]1(C)CC[C@@H](OC(C)=O)C[C@H]1C[C@H]3OC(C)=O`
0.0
